# Tested on: LOC_OS01G39600-cb002;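 further: purified Escherichia coli-expressed rice kinase domain construct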
# test-name: thermal shift delta Tm vs DMSO control; higher = stronger stabilization (binding)
# conditions: 12.5 µM; protein concentration 2 µM

[
  {
    "compound": "COc1ccc(-c2nc(N3CCOCC3)c3sc(CN(C)c4ncc(C(=O)NO)cn4)cc3n2)cn1",
    "experimental-system": "LOC_OS01G39600-cb002",
    "thermal shift delta Tm": "0.28 °C"
  },
  {
    "compound": "CN(C[C@@H]1COCCO1)S(=O)(=O)Nc1ccc2ccc3ncc(-c4cnn(C)c4)cc3c(=O)c2c1",
    "experimental-system": "LOC_OS01G39600-cb002",
    "thermal shift delta Tm": "2.41 °C"
  },
  {
    "compound": "CC(=O)O/N=C1/C(c2c(O)[nH]c3cc(Br)ccc23)=Nc2ccccc21",
    "experimental-system": "LOC_OS01G39600-cb002",
    "thermal shift delta Tm": "-0.05 °C"
  },
  {
    "compound": "FC(F)(F)c1ccc(CNc2ccc(Cc3c[nH]c4ncc(Cl)cc34)cn2)cn1",
    "experimental-system": "LOC_OS01G39600-cb002",
    "thermal shift delta Tm": "2.41 °C"
  },
  {
    "compound": "CCCCOc1c(C(=O)c2c(F)cc(C)cc2F)c[nH]c2nncc1-2",
    "experimental-system": "LOC_OS01G39600-cb002",
    "thermal shift delta Tm": "0.07 °C"
  },
  {
    "compound": "O=C(/C=C/c1ccc(O)c(O)c1)c1ccc(O)cc1O",
    "experimental-system": "LOC_OS01G39600-cb002",
    "thermal shift delta Tm": "4.11 °C"
  },
  {
    "compound": "CC(C)NC(=O)C1CCC(n2c(NC(=O)c3ccc(F)cc3)nc3ccc(CN4CCC(C(C)(C)O)CC4)cc32)CC1 (stereo unspecified)",
    "experimental-system": "LOC_OS01G39600-cb002",
    "thermal shift delta Tm": "2.02 °C"
  },
  {
    "compound": "O=C(O)CCC(=O)Nc1ccc(Br)cn1",
    "experimental-system": "LOC_OS01G39600-cb002",
    "thermal shift delta Tm": "-0.26 °C"
  },
  {
    "compound": "CC(C)c1cnn2c(NCc3ccccc3)cc(NCCCCCCN)nc12",
    "experimental-system": "LOC_OS01G39600-cb002",
    "thermal shift delta Tm": "-0.29 °C"
  },
  {
    "compound": "CCCCCCCCCC(=O)CC(O)S(=O)(=O)O (stereo unspecified) [Sodium Houttuyfonate]",
    "experimental-system": "LOC_OS01G39600-cb002",
    "thermal shift delta Tm": "-0.35 °C"
  },
  {
    "compound": "COc1cc(Nc2ncc(F)c(Nc3ccc4c(n3)NC(=O)C(C)(C)O4)n2)cc(OC)c1OC",
    "experimental-system": "LOC_OS01G39600-cb002",
    "thermal shift delta Tm": "4.95 °C"
  },
  {
    "compound": "FC(F)c1nc2ccccc2n1-c1nc(N2CCOCC2)nc(N2CCOCC2)n1",
    "experimental-system": "LOC_OS01G39600-cb002",
    "thermal shift delta Tm": "0.94 °C"
  },
  {
    "compound": "C=CC(=O)N1CC[C@@H](Oc2nc(Nc3ccc(N4CCC(N5CCN(C)CC5)CC4)cc3)c(C(N)=O)nc2CC)C1",
    "experimental-system": "LOC_OS01G39600-cb002",
    "thermal shift delta Tm": "1.51 °C"
  },
  {
    "compound": "CNS(=O)(=O)C[C@H]1CC[C@H](N(C)c2[nH]cnc3nccc2-3)CC1",
    "experimental-system": "LOC_OS01G39600-cb002",
    "thermal shift delta Tm": "1.81 °C"
  },
  {
    "compound": "CO[C@H]1C[C@@H]2CC[C@@H](C)[C@@](O)(O2)C(=O)C(=O)N2CCCC[C@H]2C(=O)O[C@H]([C@H](C)C[C@@H]2CC[C@@H](OP(C)(C)=O)[C@H](OC)C2)CC(=O)[C@H](C)/C=C(\\C)[C@@H](O)[C@@H](OC)C(=O)[C@H](C)C[C@H](C)/C=C/C=C/C=C/1C",
    "experimental-system": "LOC_OS01G39600-cb002",
    "thermal shift delta Tm": "-0.26 °C"
  },
  {
    "compound": "CCc1cnn2c(NCc3ccc[n+]([O-])c3)cc(N3CCCC[C@H]3CCO)nc12",
    "experimental-system": "LOC_OS01G39600-cb002",
    "thermal shift delta Tm": "-0.18 °C"
  }
]
